# Test details: NCI Yeast Anticancer Drug Screen. Data for the mlh1 rad18 strain (AID 175)
# Run parameters: S. cerevisiae mlh1 rad18 strain growth inhibition; at 50.0 µM (retest, dose inferred, filed as 5.0)
This is part of a sample that, as a whole, favours compounds with a hit. Of some 79,000 tested, about 15% had one in any assay. The source made the active and inactive calls. Rule as the data show it: active = growth inhibition above about 70%; inactive = the rest.
Response enum: label 1 (active), label 0 (inactive)

Answered cases to consult:
Brc1ccc(C2SCc3nc4ccccc4n32)cc1 (stereo unspecified); label 0
CSc1ncccc1C(=O)[O][Sn]([c]1ccccc1)([c]1ccccc1)[c]1ccccc1; label 1
CSc1ccc(/C=N/NC(N)=S)cc1; label 0
COc1cc(C(c2cc3c(cc2O)OCO3)N2CCCCC2)cc(OC)c1OC (stereo unspecified); label 0

Please indicate how the test categorized O=C1Sc2sc(=S)sc2SC1c1ccccc1 (stereo unspecified) . label 1

For Cn1cc(NC(=O)c2cc(NC(=O)CCCCCCCCCCC(=O)Nc3cc(C(=O)Nc4cc(C(=O)NCCC(=N)N)n(C)c4)n(C)c3)cn2C)cc1C(=O)NCCC(=N)N then? label 1

// query: CC(/C=C/c1cccs1)=N\C(=S)NC(N)=S label 0

Also Cc1c2c(c(O)c3c(O)cccc13)C(=O)C1(O)C(=O)C(C(N)=O)C(O)C(N(C)C)C1C2 (stereo unspecified) , if possible. label 1

How about this compound: O=C(CNC(=O)OCc1ccccc1)Oc1ccc([N+](=O)[O-])cc1 label 0

Please give the result for O=C(Cl)c1cc(-c2ccc(Cl)cc2)nc2c(Cl)cccc12 too. label 1

Try the compound Nc1ccc(SSc2ccc(N)cc2)cc1 label 1
